tested on: HL-60(TB) leukemia; assay: NCI tumour cell line growth inhibition, 48 h; in the data active means GI50 below about 0.43 µM; inactive means the rest
Parameter call: string, one of active, inactive

Use the examples below as a reference point.
What is the recorded call for this compound in the test? Cc1cc(Cl)ccc1OCC(=O)Nc1nc2c(Cl)cccc2s1
inactive

In this assay, the call recorded for CC/C=C\C[C@H]1CC=C2C(=O)C=C[C@@H]2CC=CCCCC(=O)O[C@@H](CCCCC)CC=C2C(=O)C=C[C@@H]2CC=CCCCC(=O)O[C@@H](CCCCC)CC=C2C(=O)C=C[C@@H]2CC=CCCCC(=O)O[C@@H](CCCCC)CC=C2C(=O)C=C[C@@H]2CC=CCCCC(=O)O1 was what?
inactive

So what was the verdict on C[C@]12CCc3sc(Nc4ccc(OC(F)(F)F)cc4)nc3C1=CC[C@@H]1[C@@H]2CC[C@]2(C)C(=O)CC[C@@H]12 in this test?
inactive

// return assay outcome for CCN1C(=O)c2ccc3c4c(ccc(c24)C1=O)C(=O)N(CCCNCc1ccccc1OC)C3=O
inactive

Now look at this one.
Call for entry COC(=O)c1ccc2[nH]c(O)c(C(=Nc3ccc(N(C)C(=O)CN4CCN(C)CC4)cc3)c3ccc4c(c3)OCO4)c2c1 :
active

###

tested on: SK-MEL-2 melanoma; test: NCI tumour cell line growth inhibition, 48 h; in the data active = GI50 below about 0.43 µM; inactive = the rest
Select the correct class. Options are active, inactive and nothing else.

Can you look up the reported call for Cc1cn(-c2cc(NC(=O)c3cccc(C#Cc4cccc5[nH]nc(N)c45)c3)cc(C(F)(F)F)c2)cn1 for me?
inactive

Please state the recorded outcome for this compound: NC(CSC(c1ccccc1)(c1ccccc1)c1ccccc1)C(=O)NCC(=O)O (configuration not stated)
inactive

---
Please indicate how the test categorized CS(=O)(=O)CCNCc1coc(-c2ccc3ncnc(Nc4ccc(OCc5ccccc5)cc4)c3c2)c1 .
inactive

Status in this test for O=C(/C=C/c1ccccc1)Nc1ncc(Cc2ccccc2Cl)s1 ?
inactive

Assay outcome for Nc1n[nH]c2cccc(C#Cc3cccc(NC(=O)c4cccc(C(F)(F)F)c4)c3)c12 : what was it?
inactive

Look up the recorded call for CCN(CC)CCNC(Cc1ccccc1)c1ccc(OCc2ccccc2)cc1 (configuration not stated) in this test.
inactive

What is the recorded call for this compound in the test? COc1ccc2c(c1)OC1=C(C(=O)OC1)C2c1cc(OC)c2c(c1)OCCO2 (configuration not stated)
active

###

system: EKVX NSCLC; assay: NCI tumour cell line growth inhibition, 48 h
TEST READOUT: TGI (µM)
One number for each entry, in µM.

What value of TGI has been reported for the following molecule? COc1cccc2c1C(=N)c1c(O)c3c(c(O)c1C2=O)C[C@@](O)(C(C)=O)C[C@@H]3O[C@H]1C[C@H](N)[C@H](O)[C@H](C)O1
12.6

Can you look up the measured TGI of C[C@]12CCc3sc(Nc4ccc(OC(F)(F)F)cc4)nc3C1=CC[C@@H]1[C@@H]2CC[C@]2(C)C(=O)CC[C@@H]12 for me?
17.4

For the molecule shown here, CCN1C(=O)/C(=C/c2c(Cl)[nH]c3cc(C)c(OC)cc23)c2ccccc21 , give the reported TGI.
80.4

# input for lookup
Query: TGI; subject: CC(C)(C)C1CCC(=O)/C(=C/CC2CC(=O)N(c3ccccc3)C(=O)C2)C1 (stereo not given)
60.2

###

Could you please report measured TGI for the items listed next?
tested on: SW-620 colon; experiment: NCI tumour cell line growth inhibition, 48 h

Use the examples below as a reference point.
Using the record for CCCCCCCC(CC(=O)NC(CO)C(=O)NC(CO)CC(C)C)OC(=O)CC(CCCCCCC)OC(=O)CC(CCCCCCC)OC1OC(C)C(O)C(OC2OC(C)C(OC(C)=O)C(O)C2O)C1O (stereo not drawn) , report its TGI.
23.3 µM

Given C#CC1(O)C(COP(=O)(O)OCC(COP(=O)(O)OCC2OC(n3cc(F)c(=O)[nH]c3=O)CC2O)OCCCCCCCCCCCCCCCCCC)OC(n2ccc(N)nc2=O)C1O (stereo not drawn) , state its recorded TGI.
> 100 µM

TGI for CC(=O)C1C(c2ccccc2)C2(C)OC(=O)C(C#N)C12C (stereo not drawn) ?
> 100 µM

Quick one: TGI of O=C(/C=C/c1ccc(O)c(O)c1)OCC(OC(=O)/C=C/c1ccc(O)c(O)c1)C(=O)O (stereo not drawn) ?
> 100 µM

What value of TGI has been recorded for this entry: CCCCCCCCn1ccc2cc(NC(=O)Cn3cc(CN4CCCCCC4)nn3)ccc21
3.33 µM

Could you share which TGI value was measured for O=C(O)CO[C@@]12C#C/C=C\C#C[C@@H]3N(C(=O)Oc4ccccc4)c4ccccc4[C@]14O[C@@]34CCC2 ?
> 100 µM

Your task in this section: give TGI for each listed record.
1. COc1ccc(C2=C[C@]3(O)CCCN3C[C@@H]2c2ccc(OC)c(OC)c2)cc1
2. Cc1nnc(-c2ccc(C)c(-c3ccc(C(=O)Nc4cccc(C#N)c4)cc3)c2)o1

1: 0.00183 µM; 2: > 25 µM

###

Would you mind telling me the reported TGI of each entry?
test system: COLO 205 colon; experiment: NCI tumour cell line growth inhibition, 48 h
Numbers only, in µM.

Solved cases (3 shown):
# query: TGI of entry COc1ccc2nc(N/N=C/c3sccc3C)cc(C)c2c1
32.7

What value of TGI has been recorded for this entry: O=C1CS(=O)(=O)C(c2cccc(Oc3ccccc3)c2)N1c1ccc(Cl)cc1 (stereo unspecified)
35.5

I have this compound here, CN(C)CCNC(=O)c1cccc2c(=O)c3ccccc3oc12 , and I need its recorded TGI.
19.4

Continuing:
Look up TGI: O=C(c1ccccc1)c1ccc2n[se]nc2c1
84.1

###

For each record, write down the corresponding TGI.
test system: XF 498 CNS; assay: NCI tumour cell line growth inhibition, 48 h
Give bare numbers, in µM.

What measured TGI is associated with O=C(NC(=O)c1c(F)cccc1F)Nc1cccc(Oc2ncc(Cl)cn2)c1 on XF 498 CNS?
69

Lookup: TGI / XF 498 CNS / N#C[S-].[La+3].c1cnc2c(c1)ccc1cccnc12.c1cnc2c(c1)ccc1cccnc12.c1cnc2c(c1)ccc1cccnc12
9.42

Checklist item: TGI tested on XF 498 CNS, entry O=C1C=C(Nc2ccccc2C(=O)CC(=O)C(=O)Nc2cccc([N+](=O)[O-])c2)c2ccccc2C1=O , value?
53.8

***
Give recorded TGI with XF 498 CNS for the following compound: Cc1n(CC(C)C)c2c([n+]1C)C(=O)c1ccccc1C2=O
1.46

###

tested on: HOP-62 NSCLC; experiment: NCI tumour cell line growth inhibition, 48 h
I'd be grateful if you could share measured TGI for these entries.

Dear colleague, could you send me TGI for each of the items below? Thanks.
1. O=S(Cc1ccccc1)c1nc2ccccc2nc1-c1cccs1 (stereo not drawn)
2. COC(=O)[C@@H]1C=C[C@H](OC2OC(COC(C)=O)C(OC(C)=O)C(OC(C)=O)C2OC(C)=O)n2c(=O)n(-c3ccccc3)c(=O)n21 (stereo partly drawn)
3. Nc1n[nH]c2cccc(C#Cc3cccc(NC(=O)c4cccc(C(F)(F)F)c4)c3)c12
4. CCN(CC)CCNC(Cc1ccccc1)c1ccc(OCc2ccccc2)cc1 (stereo not drawn)
5. CC1(c2cccc(C3CC4(CCC3=O)OCCCCO4)c2)OCCO1 (stereo not drawn)
6. C=C(C)C1CCC(C(=O)O)CC1 (stereo not drawn)
7. COC(=O)C1Cc2cc3c(cc2C1=O)CCC3 (stereo not drawn)

1: 37.4 µM; 2: 28.1 µM; 3: 13.9 µM; 4: 21.7 µM; 5: > 100 µM; 6: > 100 µM; 7: > 100 µM

For every item in the list below, what is its measured TGI?
1. O=C(CSc1nnc(-c2ccccn2)s1)N/N=C/c1ccccc1
2. Cc1ccc(S(=O)(=O)OC2CC=CC2)cc1
3. COc1ccc2c(c1)C(=O)/C(=C/c1cccc(OCC(=O)c3ccccc3)c1)O2

["> 100 µM", "> 100 µM", "28.5 µM"]

###

tested on: HCT-15 colon; assay: NCI tumour cell line growth inhibition, 48 h; in the data active means GI50 below about 0.43 µM; inactive means the rest
Answer with one of the outcomes True = active, False = inactive

Reference set, count: 5
Would you mind telling me which call this test gave Cn1c(Cl)c(/C=C2/C(=O)Nc3ccccc32)c2ccccc21 ?
True

GET /call?item= CCN(CC)CCNC(Cc1ccccc1)c1ccc(OCc2ccccc2)cc1 (centres undefined) returns the recorded outcome of this test.
False

For N/N=C\c1c2ccccc2c(=O)n2c1oc1ccccc12 , which call appears in the assay record?
False

Any idea what this test logged for COc1ccc2c(c1)NC1=C(C(=O)OC1)C2c1cc(OC)c(OC)c(OC)c1 (centres undefined) ?
True

Please state the recorded outcome for this molecule: O=C1C=CC(=O)C2C1C1(Cl)C(Cl)=C(Cl)C2(Cl)C1(Cl)Cl (centres undefined)
False

More entries:
What outcome does the record of this test show for CCC[CH2][Sn]([CH2]CCC)([O]C(=O)CN)[O]C(=O)CN ?
False

What was the test verdict on O=C(Oc1ccc[nH]c1=O)c1cc([N+](=O)[O-])cc([N+](=O)[O-])c1 ?
False

Recorded call for C=C(C)[C@@H]1CC[C@]2(COCCCN)CC[C@]3(C)[C@H](CC[C@@H]4[C@@](C)(CCCNCCCN)[C@H](C(=C)C)CC[C@]43C)[C@@H]12 ?
False

Record lookup: outcome of this test for CC(=O)OC1OC([C@H]2c3cccc(O)c3C(=O)c3c(O)cc(C)cc32)C(O)C(O)C1O (some centres undefined) ?
True
